system: SK-MEL-2 melanoma; experiment: NCI tumour cell line growth inhibition, 48 h
RESULT_TYPE: TGI (µM)
# value in µM; strip the unit string

Solved cases (5 shown):
O=C1CC(c2ccccc2)Oc2ccccc21 (stereo unspecified): 86.7
CCOC(=O)c1c(N2CCCC2)[nH]c(=O)c(C(c2ccc(OC)cc2)c2c(O)c(C(=O)OCC)c(N3CCCC3)[nH]c2=O)c1O: 53.9
COC(=O)/C=C(/C=C1/C(C#N)=C(N)N(c2ccc(Cl)cc2)C1(C)/C(=C\C(=O)OC)C(=O)OC)C(=O)OC (stereo unspecified): 72.2
CCOC1C=CC(=O)C(CO)O1 (stereo unspecified): 37.1
N#CC1c2ccccc2C=CN1C(=O)CCCl (stereo unspecified): 28

Qu. Query (molecule): "Cc1nc2ccc(Cl)cc2c(-n2ccnc2)c1CCn1ccnc1" ; field requested: TGI
Ans. 44.7

Qu. Follow-up item: "OC1(c2ccc(Cl)c(C(F)(F)F)c2)CCN(CCCC(c2ccc(F)cc2)c2ccc(F)cc2)CC1"
Ans. 1.76

Qu. Can you handle "O=C1C=C[C@H](O)[C@@]2(CO)O[C@@H]12" next?
Ans. 33.5

Qu. # repeat for "NC1=CC(=O)c2c(O)ccc(O)c2C1=O"
Ans. 32.6

###

system: HCT-15 colon; assay: NCI tumour cell line growth inhibition, 48 h; in the data active means GI50 below about 0.43 µM; inactive means the rest
Respond only with the outcome that fits, drawn from active, inactive

Study these solved cases before continuing.
N#CC1c2ccccc2C=CN1C(=O)CCCl (stereo not given): inactive
O=C(/C=C/C12c3ccccc3C(c3ccccc31)C1C(=O)NC(=O)C12)c1ccccn1 (stereo not given): inactive
CCN(CC)CCCNc1ccc(C)c2sc3ccccc3c(=O)c12: active

Qu. Lab log entry: COC(=O)OC1C(O[C@H]2C[C@H]3[C@@H]4CC=C5C[C@@H](O)CC[C@]5(C)[C@H]4CC[C@]3(C)[C@H]2[C@H](C)C(=O)CCC(C)C)OCC(O)C1OC1OCC(O)C(O)C1OC(=O)c1ccc(OC)cc1 (stereo not given in full) — outcome as called in the assay?
Ans. active

Qu. Okay, and "COc1cc(CNc2nc3cc(N)cc(N)c3nc2-c2ccccc2)cc(OC)c1" ?
Ans. inactive

###

tested on: DU-145 prostate; experiment: NCI tumour cell line growth inhibition, 48 h
Measured TGI values are reported for all entries that follow.

These solved cases illustrate the format of a correct answer.
Cn1nccc1Nc1nccc(-c2ccn([C@H](CO)c3ccc(Cl)c(F)c3)c(=O)c2)n1: > 100 µM
CC1(C)OC[C@@H]([C@@]2(CO[Si](c3ccccc3)(c3ccccc3)C(C)(C)C)CC=CC(=O)O2)O1: > 100 µM

Qu. Looking for the measured TGI of "O=C(OCc1ccc2c(Br)cc(Br)c(O)c2n1)c1cc2ccccc2[nH]1" , can you help?
Ans. 2.18 µM

Qu. Same question for "CC(=O)O[C@@H](c1nccn1Cc1ccccc1)[C@H]1OC(C)(C)O[C@@H]1[C@H]1COC(C)(C)O1" please.
Ans. > 100 µM

Qu. For "CCCCCCN(CCCCCC)C(=S)N/N=C(\C)c1ccccn1" then?
Ans. 2.59 µM

Qu. COC1N(C2CC(O)C(CO)O2)C(=O)NC(=O)C1(F)Br (stereo not given) , same question.
Ans. > 100 µM

Qu. // next record "COc1ccc(C(=O)c2cc(OC)c(OC)c(OC)c2OC)cc1O"
Ans. > 100 µM

Qu. What would you report for "Nc1ncc(Cc2ccc3c(c2)OCO3)c(N)n1" ?
Ans. > 100 µM

Qu. Same question for "CCn1c2c(c3ccccc3c1=O)C(=O)c1ccccc1-2" please.
Ans. > 100 µM

Qu. How about "Cc1ccc2c(-c3ccnc(Nc4ccc5c(c4)OCCO5)n3)c(-c3ccc(C(F)(F)F)cc3)nn2n1" ?
Ans. > 25 µM
